Test system: SN12C renal
assay.text: NCI tumour cell line growth inhibition, 48 h; in the data active = GI50 below about 0.43 µM; inactive = the rest
Classes used: 1.0 = active, 0.0 = inactive

compound: CN(CCCN(C)CCC1CCCCC1)CCC1CCCCC1
target: SN12C renal
class.label: 0.0
--
compound: CCN(CC)CCC(=O)O[C@H]1CC[C@H](CC(C)[C@H]2CC(=O)C(C)C=C(C)[C@H](OC(=O)CCN(CC)CC)C(OC)C(=O)[C@@H](C)CC(C)/C=C/C=C/C=C(C)C(OC)CC3CC[C@H](C)[C@](O)(O3)C(=O)C(=O)N3CCCCC3C(=O)O2)CC1OC (stereo not given in full)
target: SN12C renal
class.label: 0.0
--
compound: CCc1nc(N)nc(N)c1C#CC(C)c1cc(-c2ccnc(C)c2)c2oc(C)nc2c1 (stereo not given)
target: SN12C renal
class.label: 1.0
--
compound: O=CN1N=C(c2ccc(Nc3ccnc4cc(Cl)ccc34)cc2)CC1c1ccc(Cl)cc1 (stereo not given)
target: SN12C renal
class.label: 0.0
--
compound: CCC(=O)c1c(C(F)(F)F)n([O-])c2ccccc2[n+]1=O
target: SN12C renal
class.label: 0.0

----------
Tested on: MALME-3M melanoma
assay.text: NCI tumour cell line growth inhibition, 48 h
If the reported TGI equals or exceeds 30 µM, assign yes. If not, assign no.

compound: O=C1c2ccccc2C(=O)c2c(O)c(NCCNCCO)cc(O)c21
class.label: no

compound: NCCC1([N+](=O)[O-])CCNCC1
class.label: yes

compound: CN(C)CC1=Nc2cccc3cccc(c23)N1
class.label: yes

compound: COC(=O)C1=C(O)C(C(=O)OC)[C@@]2(O)[C@@H](C(=O)OC)CC[C@@H]1[C@@H]2C(=O)OC (stereo partly specified)
class.label: yes

compound: Cc1ccc(F)c2c(=O)cc(-c3ccccc3)[nH]c12
class.label: yes

compound: Cn1c2ccccc2c2[nH]c3ccccc3c(=O)c21
class.label: yes

compound: C/C(=N\NC(=S)Nc1ccc(Cl)cc1)c1nc2ncccc2[nH]1
class.label: no

compound: CC(=O)/C(=C(/Br)I)c1ccccc1
class.label: no

compound: Cc1nc(N(CCO)CCO)c2sc(=S)n(-c3ccccc3)c2n1
class.label: yes

compound: O=C(CN1C(=O)S/C(=C\C(Cl)=C\c2ccccc2)C1=O)NCCCn1ccnc1
class.label: no

----------
Tested on: SF-539 CNS
assay.text: NCI tumour cell line growth inhibition, 48 h

molecule: COC1C(O)C(C)OC(O[C@@H]2C[C@H]3CC[C@@H]4[C@H](CC[C@]5(C)[C@@H](C6=CC(=O)OC6)CC[C@]45O)[C@@]3(C)[C@H](O)C2)C1O (stereo not given in full)
units.symbol: µM
comparison.symbol: =
TGI: 0.0249
//
molecule: Cc1cc(Cl)ccc1NC(=O)C(=O)Cc1occc(=O)c1O
units.symbol: µM
comparison.symbol: >
TGI: 100
//
molecule: COc1cc(Cc2ccc3c(c2C#N)N(C)c2ccccc2S3)cc(OC)c1OC
units.symbol: µM
comparison.symbol: =
TGI: 42.7
//
molecule: COc1ccc2c(c1OC)C(=O)O[C@@H]2[C@H]1c2c(c(Br)c3c(c2OC)OCO3)CCN1C
units.symbol: µM
comparison.symbol: >
TGI: 100
//
molecule: NC(=S)N/N=C/c1ccc(OC(=O)COc2ccccc2Cl)cn1
units.symbol: µM
comparison.symbol: =
TGI: 52.2
//
molecule: Nc1nc(NCCOCP(=O)(O)O)c(N)c(=O)[nH]1
units.symbol: µM
comparison.symbol: >
TGI: 100
//
molecule: COc1ccc2c(c1)C=C1CSCC3=Cc4cc(OC)ccc4OC13O2
units.symbol: µM
comparison.symbol: =
TGI: 0.816
//
molecule: CCCc1cc(-c2ccc(-c3cc(CCC)c(C=O)[nH]3)s2)[nH]c1C=O
units.symbol: µM
comparison.symbol: >
TGI: 100
//
molecule: Cc1[nH]c2ccccc2c1C1=CC(=O)N(c2ccccc2)C1=O
units.symbol: µM
comparison.symbol: =
TGI: 27.1
